TARGET: Adenosine receptor A2a (Rattus norvegicus)
Sequence (P30543 whole entry): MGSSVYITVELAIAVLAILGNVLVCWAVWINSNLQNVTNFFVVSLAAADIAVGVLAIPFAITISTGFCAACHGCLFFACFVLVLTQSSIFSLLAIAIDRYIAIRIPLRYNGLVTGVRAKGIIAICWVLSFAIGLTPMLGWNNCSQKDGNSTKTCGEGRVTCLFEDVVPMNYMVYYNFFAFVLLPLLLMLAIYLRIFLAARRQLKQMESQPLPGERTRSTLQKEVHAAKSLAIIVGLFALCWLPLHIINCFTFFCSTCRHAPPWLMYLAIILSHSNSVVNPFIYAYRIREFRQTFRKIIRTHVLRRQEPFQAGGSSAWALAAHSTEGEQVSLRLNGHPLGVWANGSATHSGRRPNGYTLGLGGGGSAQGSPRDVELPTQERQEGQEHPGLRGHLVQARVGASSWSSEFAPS
pKi: −log10 of the molar value.
MEASURE: pKi

(P) CC(C)NC(=O)[C@H]1OC(n2cnc3c(N)ncnc32)[C@H](O)[C@@H]1O (stereo partly specified)
(Q) CC(C)(C)NC(=O)[C@H]1O[C@@H](n2cnc3c(N)ncnc32)[C@H](O)[C@@H]1O
Between P and Q , which one shows the larger pKi value? Lab log: write the label of the selected item as the result.
P

(A) CCNC(=S)[C@H]1O[C@@H](n2cnc3c(N)ncnc32)[C@H](O)[C@@H]1O
(B) CONC(=O)[C@H]1O[C@@H](n2cnc3c(N)ncnc32)[C@H](O)[C@@H]1O
(C) Nc1ncnc2c1ncn2[C@@H]1O[C@H](C(=O)NC2CCC2)[C@@H](O)[C@H]1O
Please order the records by their reported pKi, lowest number first. Output the labels ranked as instructed.
B, A, C
(B: 6.21, A: 6.89, C: 7.31)

====

TARGET: Adenosine receptor A1 (Rattus norvegicus)
Sequence (P25099 whole entry): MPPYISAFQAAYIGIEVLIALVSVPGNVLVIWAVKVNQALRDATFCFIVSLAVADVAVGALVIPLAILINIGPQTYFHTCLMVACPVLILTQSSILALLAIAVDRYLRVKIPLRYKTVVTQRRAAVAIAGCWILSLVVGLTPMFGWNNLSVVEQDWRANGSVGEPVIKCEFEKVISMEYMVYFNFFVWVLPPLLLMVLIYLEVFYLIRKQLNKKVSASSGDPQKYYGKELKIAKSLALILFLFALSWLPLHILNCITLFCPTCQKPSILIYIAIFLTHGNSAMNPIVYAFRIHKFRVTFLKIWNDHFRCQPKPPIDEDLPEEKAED
pKi: −log10 of the molar value.
MEASURE: pKi

Would you please look over these solved cases?
CONC(=O)[C@H]1O[C@@H](n2cnc3c(N)ncnc32)[C@H](O)[C@@H]1O | 5.79
Nc1ncnc2c1ncn2[C@@H]1O[C@H](C(=O)NC2CCCC2)[C@@H](O)[C@H]1O | 6.11
Nc1ncnc2c1ncn2[C@@H]1O[C@H](C(=O)NCCCl)[C@@H](O)[C@H]1O | 6.61
CC(C)(C)NC(=O)[C@H]1O[C@@H](n2cnc3c(N)ncnc32)[C@H](O)[C@@H]1O | 5.56
CCNC(=S)[C@H]1O[C@@H](n2cnc3c(N)ncnc32)[C@H](O)[C@@H]1O | 6.85

(a) CNC(=O)[C@H]1O[C@@H](n2cnc3c(N)ncnc32)[C@H](O)[C@@H]1O
(b) CC(C)NC(=O)[C@H]1OC(n2cnc3c(N)ncnc32)[C@H](O)[C@@H]1O (stereo partly drawn)
(c) Nc1ncnc2c1ncn2[C@@H]1O[C@H](C(=S)NC2CC2)[C@@H](O)[C@H]1O
Please list these in order of increasing pKi. Thank you! Order the labels as requested and give them as your answer.
a, b, c

====

ASSAY_REMARKS: GTP shift was determined
MEASURE: GTP shift

(a) Nc1ncnc2c1ncn2[C@@H]1O[C@H](C(=O)NC2CCCC2)[C@@H](O)[C@H]1O
(b) Nc1ncnc2c1ncn2[C@@H]1O[C@H](C(=S)NC2CC2)[C@@H](O)[C@H]1O
Quick one: lower GTP shift, a or b ? When you have decided, please share the label of that item.
b

====

TARGET: Adenosine receptor A1 (Rattus norvegicus, UniProt P25099)
Sequence (P25099 whole entry): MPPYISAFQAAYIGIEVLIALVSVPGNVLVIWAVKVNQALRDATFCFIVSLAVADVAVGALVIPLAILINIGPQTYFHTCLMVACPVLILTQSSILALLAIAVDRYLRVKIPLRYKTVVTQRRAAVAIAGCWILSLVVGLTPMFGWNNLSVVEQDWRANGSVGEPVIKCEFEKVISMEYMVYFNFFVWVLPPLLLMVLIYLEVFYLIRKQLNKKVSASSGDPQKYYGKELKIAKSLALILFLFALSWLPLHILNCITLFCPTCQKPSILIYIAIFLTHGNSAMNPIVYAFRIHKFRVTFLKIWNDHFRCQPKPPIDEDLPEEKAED
ASSAY_REMARKS: Ability to displace radioligand [3H]- DPCPX from adenosine A1 receptor on rat cortical membrane in the presence of 1 mM of GTP
MEASURE: Ki (µM)

Consider the following illustrative entries.
CCNC(=S)[C@H]1O[C@@H](n2cnc3c(N)ncnc32)[C@H](O)[C@@H]1O | 0.478
CONC(=O)[C@H]1O[C@@H](n2cnc3c(N)ncnc32)[C@H](O)[C@@H]1O | 1.96
CC(C)(C)NC(=O)[C@H]1O[C@@H](n2cnc3c(N)ncnc32)[C@H](O)[C@@H]1O | 6.95
Nc1ncnc2c1ncn2[C@@H]1O[C@H](C(=O)NC2CCCC2)[C@@H](O)[C@H]1O | 4.9
Nc1ncnc2c1ncn2[C@@H]1O[C@H](C(=O)NCCCl)[C@@H](O)[C@H]1O | 0.89

(1) CNC(=O)[C@H]1O[C@@H](n2cnc3c(N)ncnc32)[C@H](O)[C@@H]1O
(2) CC(C)NC(=O)[C@H]1OC(n2cnc3c(N)ncnc32)[C@H](O)[C@@H]1O (stereo partly drawn)
(3) Nc1ncnc2c1ncn2[C@@H]1O[C@H](C(=S)NC2CC2)[C@@H](O)[C@H]1O
Put the items in order so that reported Ki rises from first to last. // format: requested-order list of labels
3, 2, 1
